Values compiled from paper PMC5971309.

Measured IC50, listed per entry.
- ASSAY TARGET: ERα (Homo sapiens, UniProt P03372)
- Construct: purchased Life Technologies
- Sequence (P03372 1-595): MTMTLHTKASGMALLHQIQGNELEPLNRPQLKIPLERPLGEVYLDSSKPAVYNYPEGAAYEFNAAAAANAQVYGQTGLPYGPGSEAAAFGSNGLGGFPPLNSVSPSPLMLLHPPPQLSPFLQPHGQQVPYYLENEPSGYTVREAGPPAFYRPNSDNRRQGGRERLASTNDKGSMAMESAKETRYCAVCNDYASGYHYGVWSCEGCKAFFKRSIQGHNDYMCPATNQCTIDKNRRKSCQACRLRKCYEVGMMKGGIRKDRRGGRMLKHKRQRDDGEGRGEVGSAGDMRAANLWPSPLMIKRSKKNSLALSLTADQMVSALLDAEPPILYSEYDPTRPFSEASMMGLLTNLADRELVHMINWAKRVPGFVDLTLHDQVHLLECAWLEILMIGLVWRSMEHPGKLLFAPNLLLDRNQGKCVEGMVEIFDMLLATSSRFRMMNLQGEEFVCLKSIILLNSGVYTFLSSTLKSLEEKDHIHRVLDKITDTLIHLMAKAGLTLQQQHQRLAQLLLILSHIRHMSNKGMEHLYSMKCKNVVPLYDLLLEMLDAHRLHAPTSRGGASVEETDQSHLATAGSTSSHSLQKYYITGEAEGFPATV
- ASSAY REMARKS: green PolarScreen ERα Competitor Assay (fluorescence polarization)
- Assay type: binding
- MEASUREMENT CONDITIONS: values in μM

Here are 2 compounds together with their reported answers.
INSERT INTO results (compound, readout_value) VALUES
  ('COc1cc(C2Oc3cc([C@H]4Oc5cc(O)cc(O)c5C(=O)[C@@H]4O)ccc3OC2CO)ccc1O (stereo partly drawn) [silibinin]', '> 10 µM'),
  ('COc1ccc(-c2cc(=O)c3c(O)cc(O[C@@H]4O[C@H](CO[C@@H]5O[C@@H](C)[C@H](O)[C@@H](O)[C@H]5O)[C@@H](O)[C@H](O)[C@H]4O)cc3o2)cc1O [diosmin]', '> 10 µM');

Next:
### Prompt Which IC50 is reported for this compound? C[C@@H]1O[C@@H](O[C@H]2[C@H](Oc3cc(O)c4c(c3)O[C@H](c3ccc(O)cc3)CC4=O)O[C@H](CO)[C@@H](O)[C@@H]2O)[C@H](O)[C@H](O)[C@H]1O [naringin]
### Response > 10 µM
